- Study target: human CYP11B1 (Homo sapiens)
- Sequence (P15538 25-503): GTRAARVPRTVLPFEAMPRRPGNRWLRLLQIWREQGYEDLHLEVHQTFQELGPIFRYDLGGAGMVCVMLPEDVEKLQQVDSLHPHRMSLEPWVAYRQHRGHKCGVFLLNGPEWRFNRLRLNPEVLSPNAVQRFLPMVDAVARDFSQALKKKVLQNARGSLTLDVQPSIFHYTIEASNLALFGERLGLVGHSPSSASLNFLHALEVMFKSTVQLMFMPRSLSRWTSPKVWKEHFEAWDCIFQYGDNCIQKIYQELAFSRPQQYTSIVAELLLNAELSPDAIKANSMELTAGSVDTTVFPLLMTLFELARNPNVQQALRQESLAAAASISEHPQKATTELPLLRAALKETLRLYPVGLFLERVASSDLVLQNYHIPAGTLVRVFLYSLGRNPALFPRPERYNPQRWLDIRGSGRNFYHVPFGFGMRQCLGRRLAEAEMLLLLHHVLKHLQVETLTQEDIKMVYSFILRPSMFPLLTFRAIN
- Assay: Inhibition of hCYP11B1 in transfected V79 cells
- Reported conditions: hamster V79 cells expressing human CYP11B1; substrate 11-deoxycortisol 200 nM
Would you kindly list pIC50 for each of these compounds?
Give bare numbers, as −log10 of the molar value.

Input smiles	Study target	pIC50
COc1ccc(CC(=O)N2CCOc3c(-c4ccc(C#N)cc4)cncc32)cc1	human CYP11B1 (Homo sapiens)	7.14
N#Cc1ccc(-c2cncc3c2OCCN3S(=O)(=O)C2CN(S(=O)(=O)c3ccc(F)cc3)C2)cc1	human CYP11B1 (Homo sapiens)	7.27
N#Cc1ccc(-c2cncc3c2CCN3S(=O)(=O)c2cccc(C#N)c2)cc1	human CYP11B1 (Homo sapiens)	9.74

Count: 6. Required value per item: pIC50.
1. N#Cc1ccc(-c2cncc3c2OCCN3S(=O)(=O)c2cccnc2)cc1
2. N#Cc1ccc(-c2cncc3c2OCCN3S(=O)(=O)c2ccc3ccccc3c2)cc1
3. COc1ccc(C(=O)N2CCc3c(-c4ccc(C#N)cc4)cncc32)cc1
4. N#Cc1ccc(-c2cncc3c2ccn3S(=O)(=O)c2ccc(Cl)cc2)cc1
5. N#Cc1ccc(-c2cncc3c2OCCN3S(=O)(=O)c2cccc(C(F)(F)F)c2)cc1
6. N#Cc1ccc(-c2cncc3c2OCCN3S(=O)(=O)c2ccc(Cl)cc2)cc1

[9.51, 9.04, 6.91, 9.22, 9.13, 9.18]

---

- Study target: human CYP11B2 (Homo sapiens, UniProt P19099)
- Sequence (P19099 25-503): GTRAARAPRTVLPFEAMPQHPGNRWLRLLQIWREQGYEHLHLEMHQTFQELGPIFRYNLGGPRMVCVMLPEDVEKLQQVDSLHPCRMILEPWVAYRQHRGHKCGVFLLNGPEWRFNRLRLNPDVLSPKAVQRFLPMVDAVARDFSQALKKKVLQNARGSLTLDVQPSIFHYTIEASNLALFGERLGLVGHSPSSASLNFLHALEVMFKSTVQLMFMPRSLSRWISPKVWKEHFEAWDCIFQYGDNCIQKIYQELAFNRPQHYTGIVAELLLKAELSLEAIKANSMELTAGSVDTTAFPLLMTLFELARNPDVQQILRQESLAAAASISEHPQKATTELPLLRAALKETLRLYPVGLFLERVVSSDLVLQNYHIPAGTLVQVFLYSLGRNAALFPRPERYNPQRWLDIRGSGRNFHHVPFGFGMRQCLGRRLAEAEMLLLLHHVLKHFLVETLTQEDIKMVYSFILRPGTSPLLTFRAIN
- Assay: Inhibition of hCYP11B2 in transfected V79 cells
- Reported conditions: hamster V79 cells expressing human CYP11B2; substrate 11-deoxycorticosterone 200 nM
Kindly state IC50 for each of the entries shown.
Answers are plain numbers, in nM.

Compound	Observed result
N#Cc1ccc(-c2cncc3c2SCCN3S(=O)(=O)C2CN(S(=O)(=O)c3ccc(F)cc3)C2)cc1 [S74]	1.7

Hi team, please reply with IC50 for each item in this list.
1. N#Cc1ccc2[nH]c(-c3cncc4c3CCN4C(=O)C3CN(Cc4cccc(F)c4)C3)cc2c1 [C81]
2. COc1cccc(C(=O)N2CCOc3c(-c4ccc(C#N)cc4)cncc32)c1 [O23]
3. N#Cc1ccc(-c2cncc3c2OCCN3C(=O)N2CC(Cc3cccc(F)c3)C2)cc1 [O136]
4. COc1ccc(CN2CC(S(=O)(=O)N3CCSc4c(-c5ccc(C#N)cc5)cncc43)C2)cc1 [S84]
5. N#Cc1ccc(-c2cncc3c2CCN3C(=O)c2ccc([N+](=O)[O-])cc2)cc1 [C30]
6. N#CCC(=O)N1CCOc2c(-c3ccc(C#N)cc3)cncc21 [O32]

1. 15
2. 29.5
3. 22
4. 1.1
5. 11
6. 18

For every item below, please supply its IC50.
1. N#Cc1ccc(-c2cncc3c2OCCN3C(=O)C2CN(S(=O)(=O)c3ccc(C#N)cc3)C2)cc1 [O75]
2. N#Cc1ccc(-c2cncc3c2SCCN3S(=O)(=O)c2cccc([N+](=O)[O-])c2)cc1 [S18]
3. N#Cc1ccc(-c2cncc3c2CCN3C(=O)c2ccccc2)cc1 [C41]
4. COc1ccc(CCC(=O)N2CCOc3c(-c4ccc(C#N)cc4)cncc32)cc1 [O51]
5. N#Cc1ccc(S(=O)(=O)N2CCOc3c(-c4cc5cc(Cl)ccc5o4)cncc32)cc1 [O128]

1. 1.3
2. 0.1
3. 40
4. 0.7
5. 3.3

Batch request: IC50 per item, same order as input.
1. N#Cc1ccc(-c2cncc3c2OCCN3C(=O)C2CN(S(=O)(=O)c3ccc(C#N)cc3)C2)cc1 [O69]
2. N#Cc1ccc(-c2cncc3c2OCCN3C(=O)C2CCN(S(=O)(=O)c3cccc(F)c3)CC2)cc1 [O55]
3. N#Cc1ccc(-c2cncc3c2ccn3S(=O)(=O)c2ccc(C(F)(F)F)cc2)cc1 [E7]
4. N#Cc1cccc(-c2cncc3c2CCN3C(=O)c2ccccc2F)c1 [C55]
5. O=S(=O)(C1CCNCC1)N1CCSc2c(-c3cc4cc(Cl)ccc4o3)cncc21 [S61]
6. N#Cc1ccc(-c2cncc3c2ccn3S(=O)(=O)c2ccc(C#N)cc2)cc1 [E14]

1: 2.1; 2: 2.1; 3: 0.1; 4: 29; 5: 21.7; 6: 0.08
